- ASSAYED_SYSTEM: T1, hMEX3B KH1/2 WT (Homo sapiens, UniProt Q6ZN04 56-230)
- T1 sequence: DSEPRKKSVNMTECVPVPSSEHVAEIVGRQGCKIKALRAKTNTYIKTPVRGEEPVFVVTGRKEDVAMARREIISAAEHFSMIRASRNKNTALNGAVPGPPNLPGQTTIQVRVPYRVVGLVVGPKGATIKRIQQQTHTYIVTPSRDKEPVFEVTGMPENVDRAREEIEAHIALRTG
- PROTOCOL: ITC; N 0.94; ITC at 298 K, protein injected into RNA, both dialyzed in the same buffer (composition not in the material; purification SEC buffer 2 M NaCl, 20 mM Tris pH 7.5); NMR at 298 K, 0.1 mM protein
- PROTOCOL_CONDITIONS: protein: recombinant; tags: 6xHis-SUMO cleaved (ULP1)
VALUE_TYPE: Kd
Respond with a number, then the unit of measure.

Exercise: Give the value of Kd reported for the following: CUGAGCUGUACC (ssRNA) [12-nt RNA A11C]
Solution: 890 nM
